Hello, the source for this data is patent US20110104177A1, in case you need it.

- target.of.assay: SIRT1 (Homo sapiens)
- Sequence (Q96EB6 whole entry): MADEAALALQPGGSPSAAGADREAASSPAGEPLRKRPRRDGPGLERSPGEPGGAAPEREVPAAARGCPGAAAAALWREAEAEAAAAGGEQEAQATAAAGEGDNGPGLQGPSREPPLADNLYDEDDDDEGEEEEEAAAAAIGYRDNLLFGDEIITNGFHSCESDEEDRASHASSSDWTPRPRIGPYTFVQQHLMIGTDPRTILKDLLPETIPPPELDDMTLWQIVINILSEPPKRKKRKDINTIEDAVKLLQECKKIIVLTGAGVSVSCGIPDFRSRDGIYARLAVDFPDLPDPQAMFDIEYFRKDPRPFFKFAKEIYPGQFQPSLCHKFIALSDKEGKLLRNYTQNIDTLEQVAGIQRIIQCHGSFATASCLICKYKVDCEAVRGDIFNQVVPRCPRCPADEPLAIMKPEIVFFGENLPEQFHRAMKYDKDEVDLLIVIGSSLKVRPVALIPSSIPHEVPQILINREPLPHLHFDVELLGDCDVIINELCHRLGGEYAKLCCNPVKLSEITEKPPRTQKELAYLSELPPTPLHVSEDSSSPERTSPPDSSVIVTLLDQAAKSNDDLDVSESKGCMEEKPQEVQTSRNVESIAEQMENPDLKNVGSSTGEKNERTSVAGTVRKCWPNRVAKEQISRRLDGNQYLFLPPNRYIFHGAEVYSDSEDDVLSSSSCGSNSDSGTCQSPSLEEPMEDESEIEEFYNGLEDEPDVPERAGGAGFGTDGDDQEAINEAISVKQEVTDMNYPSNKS

[
  {
    "compound": "O=C(NO)C1CCCc2c1[nH]c1ccc(Cl)cc21 (stereo not shown) [Compound 7]",
    "IC50": "> 10 µM"
  }
]
